Where do these numbers come from? They come from PubChem BioAssay AID588405.

- measurement_description: inhibition of PEG-3 promoter activity – cell-based, HeLa, luciferase luminescence, primary screen (AID 588405)
- condition_details: HeLa PEG-Prom luciferase reporter, overnight, at 20 µM, hits give high values
The campaign covered roughly 360,000 compounds. About 6,200 (1.7%) were called active. The sample holds actives, similar compounds and a random draw of the others, so the mix is not that of the screen.
Each entry below carries its reported inhibition.
recorded_endpoint: inhibition (%)

[[record]]
compound = "COc1cc(C(O)c2nc(-c3cccc(C(=O)O)c3)cs2)ccc1F (stereo not given)"
recorded_endpoint = "inhibition"
unit_of_measure = "%"
readout_value = -37.1

[[record]]
compound = "CCN1CCN(c2nc(Nc3cc(OC)ccc3OC)nc(Nc3cc(OC)ccc3OC)n2)CC1"
recorded_endpoint = "inhibition"
unit_of_measure = "%"
readout_value = 52.3

[[record]]
compound = "CC(C)Oc1cc(F)ccc1-c1cc(C(=O)Nc2cccc(Cl)c2)[nH]n1"
recorded_endpoint = "inhibition"
unit_of_measure = "%"
readout_value = -14.2

[[record]]
compound = "C=CCn1c2c(c3ccccc31)CCC2"
recorded_endpoint = "inhibition"
unit_of_measure = "%"
readout_value = 2.5

[[record]]
compound = "CC1(C(=O)NS(=O)(=O)Cc2cccc(Cl)c2)CCN1C(=O)Cc1ccccc1 (stereo not given)"
recorded_endpoint = "inhibition"
unit_of_measure = "%"
readout_value = 8.1

[[record]]
compound = "CCOC(=O)C1CN(S(=O)(=O)c2ccc(OC)cc2)c2cc(Cl)ccc2O1 (stereo not given)"
recorded_endpoint = "inhibition"
unit_of_measure = "%"
readout_value = 8.58

[[record]]
compound = "CC1(C(=O)NS(=O)(=O)c2ccccc2)CCN1C(=O)C/C=C/c1ccccc1 (stereo not given)"
recorded_endpoint = "inhibition"
unit_of_measure = "%"
readout_value = -9.64

[[record]]
compound = "CC(=O)Nc1ccc(S(=O)(=O)N(C)c2nc3ccccc3nc2Cl)cc1"
recorded_endpoint = "inhibition"
unit_of_measure = "%"
readout_value = 2.27

[[record]]
compound = "CCCOc1ccc(Cl)cc1Nc1nc(NCCO)nc(N2CCCC2)n1"
recorded_endpoint = "inhibition"
unit_of_measure = "%"
readout_value = 9.9

[[record]]
compound = "CC(=O)Nc1ccc(Nc2c([N+](=O)[O-])cc(S(C)(=O)=O)cc2[N+](=O)[O-])cc1"
recorded_endpoint = "inhibition"
unit_of_measure = "%"
readout_value = 3.04


###

- measurement_description: inhibition of PEG-3 promoter activity – cell-based, HeLa, luciferase luminescence, primary screen (AID 588405)
- condition_details: HeLa PEG-Prom luciferase reporter, overnight, at 20 µM, hits give high values
In all, about 360,000 compounds went through this assay and about 6,200 (1.7%) were called active. The list comes from a sample in which actives are over-represented; it also holds close analogues and randomly drawn compounds.
recorded_endpoint: inhibition (%)

[[record]]
compound = "COc1ccc2cc(C(=O)NCC3CCCO3)[nH]c2c1 (stereo not given)"
recorded_endpoint = "inhibition"
readout_value = -95.8

[[record]]
compound = "Cc1noc(C)c1C(=O)N1CCC1(C)C(=O)NS(=O)(=O)c1ccc(C#N)cc1 (stereo not given)"
recorded_endpoint = "inhibition"
readout_value = -15.2

[[record]]
compound = "Cc1ccc(S(=O)Cc2ccc(C(=O)N3CCN(C4CCCCC4)CC3)o2)cc1 (stereo not given)"
recorded_endpoint = "inhibition"
readout_value = 24.1

[[record]]
compound = "O=C(NCC1CCCO1)c1cc2c([nH]c3ccccc32)c(-c2ccc(F)cc2)n1 (stereo not given)"
recorded_endpoint = "inhibition"
readout_value = 61.3

[[record]]
compound = "O=C(NCCCO)c1cc2c([nH]c3ccccc32)c(-c2ccc(F)cc2)n1"
recorded_endpoint = "inhibition"
readout_value = 23.9

